Molecular target: human Edg-2 receptor (LPA1 receptor) (Homo sapiens, UniProt Q92633)
Sequence (Q92633 whole entry): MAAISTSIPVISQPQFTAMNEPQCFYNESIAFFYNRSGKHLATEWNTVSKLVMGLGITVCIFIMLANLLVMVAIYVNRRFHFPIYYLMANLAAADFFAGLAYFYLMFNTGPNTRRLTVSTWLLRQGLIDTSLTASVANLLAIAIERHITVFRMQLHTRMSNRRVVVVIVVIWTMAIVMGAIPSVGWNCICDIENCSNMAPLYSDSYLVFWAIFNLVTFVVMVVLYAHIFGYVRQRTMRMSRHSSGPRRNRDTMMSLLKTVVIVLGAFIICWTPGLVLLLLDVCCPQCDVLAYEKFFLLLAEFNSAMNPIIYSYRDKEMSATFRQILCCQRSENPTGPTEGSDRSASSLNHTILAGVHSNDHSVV
Assay: Edg-2 receptor inhibition by FLIPR calcium fluorescence measurement (LPA-mediated calcium liberation)
Conditions: CHO cells stably overexpressing human Edg-2 receptor; LPA 18:1 100 nM; fluo-4 fluorescence; triplicate; read-out: Inhibitory concentrations IC50 for inhibition of the Edg-2 receptor
From the text: A) Determination of Edg-2 Receptor Inhibition by Fluorescence Imaging Plate Reader (FLIPR) Measurements The inhibition of the Edg-2 receptor (LPA1 receptor) by the compounds of the invention was quantified by the inhibitory effect on the LPA-mediated calcium liberation in a cell-based calcium fluorescence assay by use of Chinese hamster ovarian (CHO) cells in which the human Edg-2 receptor was stably overexpressed (FIp-In system, Invitrogen). […]
# Lookup of reported IC50 keyed by entry

[[record]]
molecule = "COc1c(F)cc(C(=O)NC2(C(=O)O)Cc3ccccc3C2)cc1OCCc1cccc(CCO)c1"
observedmeasurement = "< 100 nM"

[[record]]
molecule = "COc1ccc(C(=O)NC2(C(=O)O)Cc3ccc(C(N)=O)cc3C2)cc1OCCc1cccc(C)c1 (stereo not shown)"
observedmeasurement = "1000 to 30000 nM"

[[record]]
molecule = "COc1ccc(C(=O)NC2(C(=O)O)Cc3ccccc3C2)cc1OCCC1CCCC(C)C1 (stereo not shown)"
observedmeasurement = "1000 to 30000 nM"


Prompt line: Provide measured IC50 value, entry: `COc1ccc(C(=O)NC2(C(=O)O)Cc3ccccc3C2)cc1-c1cc(C(F)(F)F)ccc1Cl`
Response line: 100 to 1000 nM

###

# Lookup of reported IC50 keyed by entry
target: human Edg-2 receptor (LPA1 receptor) (Homo sapiens, UniProt Q92633); experiment: Edg-2 receptor inhibition by FLIPR calcium fluorescence measurement (LPA-mediated calcium liberation); conditions: CHO cells stably overexpressing human Edg-2 receptor; LPA 18:1 100 nM; fluo-4 fluorescence; triplicate; read-out: Inhibitory concentrations IC50 for inhibition of the Edg-2 receptor

Use the examples below as a reference point.
[[record]]
molecule = "COc1ccc(C(=O)NC2(C(=O)O)Cc3ccccc3C2)cc1OCCc1cccc(Br)c1"
assayedtarget = "human Edg-2 receptor (LPA1 receptor) (Homo sapiens, UniProt Q92633)"
observedmeasurement = "< 100 nM"

[[record]]
molecule = "COc1ccc(C(=O)NC2(C(=O)O)Cc3ccccc3C2)cc1OCCc1cccc(C)c1"
assayedtarget = "human Edg-2 receptor (LPA1 receptor) (Homo sapiens, UniProt Q92633)"
observedmeasurement = "< 100 nM"

[[record]]
molecule = "COc1ccc(C(=O)NC2(C(=O)O)Cc3ccccc3C2)cc1C(=O)c1ccccc1C"
assayedtarget = "human Edg-2 receptor (LPA1 receptor) (Homo sapiens, UniProt Q92633)"
observedmeasurement = "1000 to 30000 nM"


Prompt line: Provide measured IC50 value, entry: `COc1ccc(C(=O)NC2(C(=O)O)Cc3ccccc3C2)cc1OCCCN1CCCC1=O`
Response line: 1000 to 30000 nM

Prompt line: Provide measured IC50 value, entry: `COc1ccc(C(=O)NC2(C(=O)O)Cc3ccccc3C2)cc1-c1cc(C)c(C)cc1C`
Response line: 100 to 1000 nM

###

# Lookup of reported IC50 keyed by entry
Target: human Edg-2 receptor (LPA1 receptor) (Homo sapiens, UniProt Q92633)
Assay: Edg-2 receptor inhibition by FLIPR calcium fluorescence measurement (LPA-mediated calcium liberation)
Conditions: CHO cells stably overexpressing human Edg-2 receptor; LPA 18:1 100 nM; fluo-4 fluorescence; triplicate; read-out: Inhibitory concentrations IC50 for inhibition of the Edg-2 receptor
Excerpt: A) Determination of Edg-2 Receptor Inhibition by Fluorescence Imaging Plate Reader (FLIPR) Measurements The inhibition of the Edg-2 receptor (LPA1 receptor) by the compounds of the invention was quantified by the inhibitory effect on the LPA-mediated calcium liberation in a cell-based calcium fluorescence assay by use of Chinese hamster ovarian (CHO) cells in which the human Edg-2 receptor was stably overexpressed (FIp-In system, Invitrogen). […]

Use the examples below as a reference point.
[[record]]
molecule = "Cc1cccc(CCNc2cc(C(=O)NC3(C(=O)O)Cc4ccccc4C3)ccc2C#N)c1 [Example 173]"
recordedendpoint = "IC50"
observedmeasurement = "1000 to 30000 nM"

[[record]]
molecule = "Cc1ccc(C(=O)NC2(C(=O)O)Cc3ccccc3C2)cc1OCCc1cccc(Cl)c1 [Example 176]"
recordedendpoint = "IC50"
observedmeasurement = "< 100 nM"

[[record]]
molecule = "COc1ccc(C(=O)NC2(C(=O)O)Cc3ccccc3C2)cc1OCCc1cccs1 [Example 147]"
recordedendpoint = "IC50"
observedmeasurement = "100 to 1000 nM"

[[record]]
molecule = "COc1ccc(C(=O)NC2(C(=O)O)Cc3ccccc3C2)cc1-c1ccc(C)c(C)c1 [Example 291]"
recordedendpoint = "IC50"
observedmeasurement = "100 to 1000 nM"

[[record]]
molecule = "Cc1cccc(CCOc2cc(C(=O)NC3(C(=O)O)Cc4ccccc4C3)ccc2OCCO)c1 [Example 270]"
recordedendpoint = "IC50"
observedmeasurement = "< 100 nM"


Prompt line: Provide measured IC50 value, entry: Cc1cccc(CCOc2cc(C(=O)NC3(C(=O)O)Cc4ccccc4C3)ccc2OC2CC2)c1 [Example 272]
Response line: 100 to 1000 nM

Prompt line: Provide measured IC50 value, entry: COc1ccc(C(=O)NC2(C(=O)O)Cc3ccccc3C2)cc1OCCc1cccc(C(F)(F)F)c1F [Example 155]
Response line: 1000 to 30000 nM

Prompt line: Provide measured IC50 value, entry: COc1ccc(C(=O)NC2(C(=O)O)Cc3ccccc3C2)cc1OCCc1cccc(SC)c1 [Example 16]
Response line: < 100 nM

Prompt line: Provide measured IC50 value, entry: COc1ccc(C(=O)NC2(C(=O)O)Cc3ccccc3C2)cc1-c1cccc(CNC(C)=O)c1 [Example 339]
Response line: 100 to 1000 nM

Prompt line: Provide measured IC50 value, entry: COc1ccc(C(=O)NC2(C(=O)O)Cc3ccccc3C2)cc1OCC1CC1C (centres unmarked) [Example 82]
Response line: 1000 to 30000 nM

Prompt line: Provide measured IC50 value, entry: COc1ccc(C(=O)NC2(C(=O)O)Cc3ccccc3C2)cc1OCCc1cccc(CCN)c1 [Example 246]
Response line: 1000 to 30000 nM

Prompt line: Provide measured IC50 value, entry: COc1ccc(C(=O)NC2(C(=O)O)Cc3ccccc3C2)cc1-c1cc(C(F)(F)F)ccc1F [Example 320]
Response line: < 100 nM

Prompt line: Provide measured IC50 value, entry: COc1ccc(C(=O)NC2(C(=O)O)Cc3ccccc3C2)cc1OC(C)Cc1ccccc1 (centres unmarked) [Example 142]
Response line: 1000 to 30000 nM

Prompt line: Provide measured IC50 value, entry: COc1ccc(C(=O)NC2(C(=O)O)Cc3ccccc3C2)cc1OCCc1ccc(F)cc1 [Example 136]
Response line: 1000 to 30000 nM

Prompt line: Provide measured IC50 value, entry: COCc1ccccc1-c1cc(C(=O)NC2(C(=O)O)Cc3ccccc3C2)ccc1OC [Example 316]
Response line: 100 to 1000 nM

Prompt line: Provide measured IC50 value, entry: COc1ccnc(COc2cc(C(=O)NC3(C(=O)O)Cc4ccccc4C3)ccc2OC)c1 [Example 55]
Response line: 1000 to 30000 nM

Prompt line: Provide measured IC50 value, entry: COc1ccc(C(=O)NC2(C(=O)O)Cc3ccccc3C2)cc1-c1cc(Cl)ccc1C(F)(F)F [Example 351]
Response line: < 100 nM

###

biological target: human Edg-2 receptor (LPA1 receptor) (Homo sapiens); experiment: Edg-2 receptor inhibition by FLIPR calcium fluorescence measurement (LPA-mediated calcium liberation); details: CHO cells stably overexpressing human Edg-2 receptor; LPA 18:1 100 nM; fluo-4 fluorescence; triplicate; read-out: Inhibitory concentrations IC50 for inhibition of the Edg-2 receptor
pIC50: −log10 of the molar value.
recordedEndpoint: pIC50

Use the examples below as a reference point.
[[record]]
compound = "O=C(NC1(C(=O)O)Cc2ccccc2C1)c1ccc(C(F)(F)F)c(OCCc2cc(Cl)ccc2Cl)c1"
observedmeasurement = "> 7.00"

[[record]]
compound = "COc1ccc(C(=O)NC2(C(=O)O)Cc3ccccc3C2)cc1OCCc1ccccc1Cl"
observedmeasurement = "> 7.00"

[[record]]
compound = "COc1ccc(C(=O)NC2(C(=O)O)Cc3ccccc3C2)cc1OCCc1scnc1C"
observedmeasurement = "4.52 to 6.00"

[[record]]
compound = "CCC1(COc2cc(C(=O)NC3(C(=O)O)Cc4ccccc4C3)ccc2OC)COCOC1"
observedmeasurement = "4.52 to 6.00"

[[record]]
compound = "COc1ccc(C(=O)NC2(C(=O)O)Cc3ccccc3C2)cc1Cc1ccccc1C"
observedmeasurement = "6.00 to 7.00"


Prompt line: Please indicate recorded pIC50 of `COc1ccc(C(=O)NC2(C(=O)O)Cc3ccccc3C2)cc1OS(=O)(=O)c1ccccc1` measured with human Edg-2 receptor (LPA1 receptor) (Homo sapiens).
Response line: 4.52 to 6.00

Prompt line: Please indicate recorded pIC50 of `COc1ccc(C(=O)NC2(C(=O)O)Cc3ccccc3C2)cc1SCc1ccccc1` measured with human Edg-2 receptor (LPA1 receptor) (Homo sapiens).
Response line: 4.52 to 6.00

Prompt line: Please indicate recorded pIC50 of `Cc1cccc(CCOc2cc(C(=O)NC3(C(=O)O)Cc4ccccc4C3)ccc2N(C)C)c1` measured with human Edg-2 receptor (LPA1 receptor) (Homo sapiens).
Response line: 6.00 to 7.00

Prompt line: Please indicate recorded pIC50 of `COc1ccc(C(=O)NC2(C(=O)O)Cc3ccccc3C2)cc1OCc1snnc1-c1ccccc1` measured with human Edg-2 receptor (LPA1 receptor) (Homo sapiens).
Response line: 4.52 to 6.00

Prompt line: Please indicate recorded pIC50 of `COc1ccc(C(=O)NC2(C(=O)O)Cc3ccccc3C2)cc1OCCc1noc2ccccc12` measured with human Edg-2 receptor (LPA1 receptor) (Homo sapiens).
Response line: 4.52 to 6.00

Prompt line: Please indicate recorded pIC50 of `COc1ccc(C(=O)NC2(C(=O)O)Cc3ccccc3C2)cc1-c1cccc(NC(=O)C(C)C)c1` measured with human Edg-2 receptor (LPA1 receptor) (Homo sapiens).
Response line: 4.52 to 6.00

Prompt line: Please indicate recorded pIC50 of `COc1ccc(C(=O)NC2(C(=O)O)Cc3ccccc3C2)cc1OCc1ccc(Cl)cc1` measured with human Edg-2 receptor (LPA1 receptor) (Homo sapiens).
Response line: 4.52 to 6.00

Prompt line: Please indicate recorded pIC50 of Cc1cccc(CCOc2cc(C(=O)NC3(C(=O)O)Cc4ccccc4C3)ccc2OCC2CCOC2)c1 (stereo not shown) measured with human Edg-2 receptor (LPA1 receptor) (Homo sapiens).
Response line: > 7.00

Prompt line: Please indicate recorded pIC50 of COc1ccc(C(=O)NC2(C(=O)O)Cc3cccc(F)c3C2)cc1OCCc1cccc(C)c1 (stereo not shown) measured with human Edg-2 receptor (LPA1 receptor) (Homo sapiens).
Response line: > 7.00

Prompt line: Please indicate recorded pIC50 of `COc1ccc(C(=O)NC2(C(=O)O)Cc3ccccc3C2)cc1-c1cncc(Cl)c1` measured with human Edg-2 receptor (LPA1 receptor) (Homo sapiens).
Response line: 6.00 to 7.00

Prompt line: Please indicate recorded pIC50 of COc1ccc(C(=O)NC2(C(=O)O)Cc3cccc(C)c3C2)cc1OCCc1cccc(C)c1 (stereo not shown) measured with human Edg-2 receptor (LPA1 receptor) (Homo sapiens).
Response line: > 7.00
